Just for reference, patent US6506901B2 is where these values come from.

molecular target: human β3 receptors (Homo sapiens, UniProt P13945); construct: Full length β3 AR clones (402 amino acids) containing the last 6 amino acids of hβ3—AR; expressed in transfected cells; host or cells: CHO cells; assay: cAMP response (SPA) in CHO cells expressing cloned human β3 adrenergic receptor; format: cell-based; conditions: maximal response compared to the maximal response of isoproterenol at 10^−5 M
Sequence (P13945 whole entry): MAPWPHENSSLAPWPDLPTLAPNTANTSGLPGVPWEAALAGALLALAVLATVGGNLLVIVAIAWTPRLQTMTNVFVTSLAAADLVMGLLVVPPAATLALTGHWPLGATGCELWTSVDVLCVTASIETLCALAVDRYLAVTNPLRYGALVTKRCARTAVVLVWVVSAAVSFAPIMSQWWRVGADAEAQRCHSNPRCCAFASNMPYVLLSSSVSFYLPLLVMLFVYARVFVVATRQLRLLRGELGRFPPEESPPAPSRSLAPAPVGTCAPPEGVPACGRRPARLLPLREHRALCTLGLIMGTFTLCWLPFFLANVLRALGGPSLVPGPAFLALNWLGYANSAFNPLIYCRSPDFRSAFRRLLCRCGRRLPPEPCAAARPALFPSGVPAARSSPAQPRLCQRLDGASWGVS
Recorded measurements of IA(β3), one per entry

{"Compound": "O=S(=O)(c1ccc(OC(F)(F)F)cc1)N1CCC(CNC[C@H](O)COc2ccc(O)cc2)CC1", "IA(β3)": 0.7}
{"Compound": "O=C(Nc1ccccc1)Nc1ccc(S(=O)(=O)N2CCC(CNC[C@H](O)COc3cccc4[nH]c(=O)[nH]c34)CC2)cc1", "IA(β3)": 0.68}
{"Compound": "CS(=O)(=O)Nc1cc([C@@H](O)CNCC2CCN(S(=O)(=O)c3ccc(NC(=O)Nc4ccccn4)cc3)CC2)ccc1O", "IA(β3)": 1.2}
{"Compound": "OC1c2ccccc2-c2c(OC[C@@H](O)CNCC3CCN(CCC(F)(F)F)CC3)cccc21 (some centres unmarked)", "IA(β3)": 0.75}
{"Compound": "CS(=O)(=O)Nc1cc([C@@H](O)CNCC2CCN(c3ccc(S(=O)(=O)N4CCCCC4)cc3)CC2)ccc1O", "IA(β3)": 0.97}
{"Compound": "CC(C)c1ccc(S(=O)(=O)N2CCC(CNC[C@H](O)c3ccc(O)c(NS(C)(=O)=O)c3)CC2)cc1", "IA(β3)": 1}
{"Compound": "CCCCCCCCNC(=O)Nc1ccc(S(=O)(=O)N2CCC(CNC[C@H](O)c3ccc(O)c(NS(C)(=O)=O)c3)CC2)cc1", "IA(β3)": 1}
{"Compound": "CC(C)S(=O)(=O)N1CCC(CNC[C@H](O)COc2cccc3[nH]c4ccccc4c23)CC1", "IA(β3)": 0.8}
{"Compound": "O=C1Cc2c(cccc2OC[C@@H](O)CNCC2CCN(S(=O)(=O)c3ccc(OC(F)(F)F)cc3)CC2)N1", "IA(β3)": 0.81}
{"Compound": "O=c1[nH]c2ccc(OCC(O)CNCC3CCN(S(=O)(=O)c4cccc(Br)c4)CC3)cc2[nH]1 (stereo in doubt)", "IA(β3)": 0.84}
{"Compound": "COc1ccc(S(=O)(=O)N2CCC(CNC[C@H](O)COc3cccc4[nH]c(=O)[nH]c34)CC2)cc1OC", "IA(β3)": 0.69}
{"Compound": "OCCCCCCCCCCCCN1CCC(CNC[C@H](O)COc2cccc3[nH]c4ccccc4c23)CC1", "IA(β3)": 0.53}
{"Compound": "O[C@@H](CNCC1CCN(CCC(F)(F)F)CC1)COc1c(Cl)ccc2[nH]c3ccccc3c12", "IA(β3)": 0.82}
{"Compound": "CS(=O)(=O)Nc1cc(C(O)CNCC2CCN(S(=O)(=O)c3ccc(-c4noc(CCC(=O)O)n4)cc3)CC2)ccc1O (stereo in doubt)", "IA(β3)": 0.94}

----------
biological target: human β3 receptors (Homo sapiens, UniProt P13945); construct: Full length β3 AR clones (402 amino acids) containing the last 6 amino acids of hβ3—AR; expressed in transfected cells; host or cells: CHO cells; assay: cAMP response (SPA) in CHO cells expressing cloned human β3 adrenergic receptor; type: cell-based; details: CHO cells expressing human β3 receptor; cAMP; 30 min incubation; 10^−9 M to 10^−5 M

{"Compound": "COc1ccc(S(=O)(=O)N2CCC(CNC[C@H](O)COc3cccc4[nH]c(C)cc34)CC2)cc1 [Example 40]", "EC50, nM": 490}
{"Compound": "COc1ccc(S(=O)(=O)N2CCC(CNC[C@H](O)COc3cccc4[nH]c(=O)[nH]c34)CC2)cc1OC [Example 42]", "EC50, nM": 150}
{"Compound": "Oc1ccc2[nH]c3ccccc3c2c1OC[C@@H](O)CNCC1CCN(CCC(F)(F)F)CC1 [Example 15]", "EC50, nM": 12500}
{"Compound": "COC(=O)COc1ccc(CNC(=O)Nc2ccc(S(=O)(=O)N3CCC(CNC[C@H](O)c4ccc(O)c(NS(C)(=O)=O)c4)CC3)cc2)c(F)c1 [Example 88]", "EC50, nM": 22}
{"Compound": "COC(=O)c1cccc2c1ccn2-c1ccc(S(=O)(=O)N2CCC(CNC[C@H](O)c3ccc(O)c(NS(C)(=O)=O)c3)CC2)cc1 [Example 98]", "EC50, nM": 25}
{"Compound": "CC(C)S(=O)(=O)N1CCC(CNC[C@H](O)COc2cccc3[nH]c4ccccc4c23)CC1 [Example 32]", "EC50, nM": 123}
{"Compound": "CS(=O)(=O)Nc1cc([C@@H](O)CNCC2CCN(S(=O)(=O)c3cccc4ccccc34)CC2)ccc1O [Example 153]", "EC50, nM": 42}
{"Compound": "O[C@@H](CNCC1CCN(CCC(F)(F)F)CC1)COc1c(Cl)ccc2[nH]c3ccccc3c12 [Example 19]", "EC50, nM": 1240}
{"Compound": "CN(Cc1c(F)cccc1F)C(=O)Nc1ccc(S(=O)(=O)N2CCC(CNC[C@H](O)c3ccc(O)c(NS(C)(=O)=O)c3)CC2)cc1 [Example 85]", "EC50, nM": 29}
{"Compound": "CS(=O)(=O)Nc1cc([C@@H](O)CNCC2CCN(S(=O)(=O)c3ccc(-n4cc(CC(=O)O)c5ccccc54)cc3)CC2)ccc1O [Example 97]", "EC50, nM": 11}
{"Compound": "CS(=O)(=O)Nc1cc([C@@H](O)CNCC2CCN(c3ccc(C(=O)NC(Cc4ccccc4)C(=O)O)cc3)CC2)ccc1O (stereo in doubt) [Example 109]", "EC50, nM": 31}
{"Compound": "COc1ccc(S(=O)(=O)N2CCC(CNC[C@H](O)COc3c(Br)ccc4[nH]c5ccccc5c34)CC2)cc1 [Example 34]", "EC50, nM": 7000}
{"Compound": "O=C(Nc1ccccc1)Nc1ccc(S(=O)(=O)N2CCC(CNC[C@H](O)COc3cccc4[nH]c(=O)[nH]c34)CC2)cc1 [Example 62]", "EC50, nM": 10}
{"Compound": "CCOC(=O)c1cc2ccccc2n1-c1ccc(S(=O)(=O)N2CCC(CNC[C@H](O)c3ccc(O)c(NS(C)(=O)=O)c3)CC2)cc1 [Example 95]", "EC50, nM": 125}

----------
molecular target: human β3 receptors (Homo sapiens, UniProt P13945); construct: Full length β3 AR clones (402 amino acids) containing the last 6 amino acids of hβ3—AR; expressed in transfected cells; host or cells: CHO cells; assay: cAMP response (SPA) in CHO cells expressing cloned human β3 adrenergic receptor; assay type: cell-based; details: CHO cells expressing human β3 receptor; cAMP; 30 min incubation; 10^−9 M to 10^−5 M
pEC50: −log10 of the molar value.
Recorded measurements of pEC50, one per entry

{"Compound": "O=C1Cc2c(cccc2OC[C@@H](O)CNCC2CCN(S(=O)(=O)c3ccc(OC(F)(F)F)cc3)CC2)N1", "pEC50": 6.65}
{"Compound": "Cn1cnc(S(=O)(=O)N2CCC(CNC[C@H](O)COc3ccc(O)cc3)CC2)c1", "pEC50": 5.63}
{"Compound": "CCc1cc(Br)ccc1S(=O)(=O)N1CCC(CNC[C@H](O)c2ccc(O)c(NS(C)(=O)=O)c2)CC1", "pEC50": 6.03}
{"Compound": "OCCCCCCCCCCCCN1CCC(CNC[C@H](O)COc2cccc3[nH]c4ccccc4c23)CC1", "pEC50": 5.91}
{"Compound": "CC(C)(C)c1ccc(S(=O)(=O)N2CCC(CNC[C@H](O)c3ccc(O)c(NS(C)(=O)=O)c3)CC2)cc1", "pEC50": 7.40}
{"Compound": "O=c1[nH]c2cccc(OC[C@@H](O)CNCC3CCN(CCC(F)(F)F)CC3)c2[nH]1", "pEC50": 5.92}
{"Compound": "COc1ccc(S(=O)(=O)N2CCC(CNC[C@H](O)COc3cccc4c3-c3ccccc3C4=O)CC2)cc1", "pEC50": 6.44}
{"Compound": "O=c1[nH]c2ccc(OCC(O)CNCC3CCN(S(=O)(=O)c4cccc(Br)c4)CC3)cc2[nH]1 (stereo in doubt)", "pEC50": 6.68}
{"Compound": "CS(=O)(=O)Nc1cc([C@@H](O)CNCC2CCN(c3ccc(S(=O)(=O)N4CCCCC4)cc3)CC2)ccc1O", "pEC50": 9.00}
{"Compound": "CC(C)c1ccc(S(=O)(=O)N2CCC(CNC[C@H](O)c3ccc(O)c(NS(C)(=O)=O)c3)CC2)cc1", "pEC50": 7.26}
{"Compound": "COC(=O)CCc1nc(-c2ccc(S(=O)(=O)N3CCC(CNC[C@H](O)c4ccc(O)c(NS(C)(=O)=O)c4)CC3)cc2)no1", "pEC50": 8.10}
{"Compound": "CS(=O)(=O)Nc1cc([C@@H](O)CNCC2CCN(S(=O)(=O)c3ccc(-n4cc(C(=O)O)cn4)cc3)CC2)ccc1O", "pEC50": 7.37}
{"Compound": "CS(=O)(=O)Nc1cc([C@@H](O)CNCC2CCN(S(=O)(=O)c3ccc(CNC(=O)c4ccccc4)s3)CC2)ccc1O", "pEC50": 5.85}
{"Compound": "CCOC(=O)c1cnn(-c2ccc(S(=O)(=O)N3CCC(CNC[C@H](O)c4ccc(O)c(NS(C)(=O)=O)c4)CC3)cc2)c1", "pEC50": 7.39}
